Just for reference, patent US11649227B2 is where these values come from.

Assay: Mouse PK Assays
Details: in vivo, PO 10 mg/kg, 20% DMSO/60% PEG400/20% Water, fed
measurement-label: Cmax (ng/mL)
Give just the number in ng/mL; leave the unit off.

The compound listed as Cc1cc(C(C)Nc2ccccc2C(=O)O)c2oc(N3Cc4ccccc4C3)cc(=O)c2c1 (single isomer, unassigned) [Example 363] shows Cmax equal to 1300

###

Assay: Mouse PK Assays
Settings: in vivo, IV 1 mg/kg, read-out: PK-Mouse: IV-AUC-0-last
measurement-label: AUC(0-t) (ng·h/mL)
Give just the number in ng·h/mL; leave the unit off.

Cc1cc(C(C)Nc2ccccc2C(=O)O)c2oc(N3Cc4ccccc4C3)cc(=O)c2c1 (single isomer, unassigned) : 2130

Would you kindly look at the next entry?
The molecule listed as Cc1cc(C(C)Nc2ccccc2C(=O)O)c2oc(N3CCC(C)(C)CC3)cc(=O)c2c1 (single isomer, unassigned) shows AUC(0-t) equal to 343

###

Biological target: human full length PIK3CA Wild-type (p110α/p85α complex) (Homo sapiens (Human), UniProt P42336)
Sequence (P42336 whole entry): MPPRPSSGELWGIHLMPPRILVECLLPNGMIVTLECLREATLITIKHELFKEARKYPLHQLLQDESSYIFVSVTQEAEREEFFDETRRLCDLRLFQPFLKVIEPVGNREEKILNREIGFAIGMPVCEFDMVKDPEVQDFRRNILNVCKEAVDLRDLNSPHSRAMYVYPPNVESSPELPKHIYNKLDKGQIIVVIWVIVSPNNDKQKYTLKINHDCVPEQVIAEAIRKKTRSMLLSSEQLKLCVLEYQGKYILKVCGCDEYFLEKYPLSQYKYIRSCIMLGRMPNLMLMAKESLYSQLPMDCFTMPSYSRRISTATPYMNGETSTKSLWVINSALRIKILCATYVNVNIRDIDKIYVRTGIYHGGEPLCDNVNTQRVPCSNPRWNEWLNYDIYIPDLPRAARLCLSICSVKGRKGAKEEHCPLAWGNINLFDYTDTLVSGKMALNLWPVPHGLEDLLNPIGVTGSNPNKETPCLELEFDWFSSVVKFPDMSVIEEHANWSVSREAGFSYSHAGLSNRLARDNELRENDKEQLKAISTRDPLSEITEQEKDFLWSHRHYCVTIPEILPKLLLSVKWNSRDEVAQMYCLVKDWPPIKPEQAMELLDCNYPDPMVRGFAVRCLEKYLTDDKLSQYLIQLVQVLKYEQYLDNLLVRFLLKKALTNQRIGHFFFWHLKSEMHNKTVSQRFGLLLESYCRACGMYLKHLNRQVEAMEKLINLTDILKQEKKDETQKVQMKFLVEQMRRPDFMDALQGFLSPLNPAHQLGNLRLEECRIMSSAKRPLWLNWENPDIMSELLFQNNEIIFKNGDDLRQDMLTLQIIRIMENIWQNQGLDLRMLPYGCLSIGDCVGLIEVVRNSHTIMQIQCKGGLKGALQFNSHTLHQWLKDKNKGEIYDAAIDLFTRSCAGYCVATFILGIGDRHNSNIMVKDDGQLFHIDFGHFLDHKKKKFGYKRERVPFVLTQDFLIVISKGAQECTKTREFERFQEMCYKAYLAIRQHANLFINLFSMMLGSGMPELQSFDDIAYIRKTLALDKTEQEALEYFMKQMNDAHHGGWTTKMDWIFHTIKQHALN
Sequence (P27986 whole entry partner): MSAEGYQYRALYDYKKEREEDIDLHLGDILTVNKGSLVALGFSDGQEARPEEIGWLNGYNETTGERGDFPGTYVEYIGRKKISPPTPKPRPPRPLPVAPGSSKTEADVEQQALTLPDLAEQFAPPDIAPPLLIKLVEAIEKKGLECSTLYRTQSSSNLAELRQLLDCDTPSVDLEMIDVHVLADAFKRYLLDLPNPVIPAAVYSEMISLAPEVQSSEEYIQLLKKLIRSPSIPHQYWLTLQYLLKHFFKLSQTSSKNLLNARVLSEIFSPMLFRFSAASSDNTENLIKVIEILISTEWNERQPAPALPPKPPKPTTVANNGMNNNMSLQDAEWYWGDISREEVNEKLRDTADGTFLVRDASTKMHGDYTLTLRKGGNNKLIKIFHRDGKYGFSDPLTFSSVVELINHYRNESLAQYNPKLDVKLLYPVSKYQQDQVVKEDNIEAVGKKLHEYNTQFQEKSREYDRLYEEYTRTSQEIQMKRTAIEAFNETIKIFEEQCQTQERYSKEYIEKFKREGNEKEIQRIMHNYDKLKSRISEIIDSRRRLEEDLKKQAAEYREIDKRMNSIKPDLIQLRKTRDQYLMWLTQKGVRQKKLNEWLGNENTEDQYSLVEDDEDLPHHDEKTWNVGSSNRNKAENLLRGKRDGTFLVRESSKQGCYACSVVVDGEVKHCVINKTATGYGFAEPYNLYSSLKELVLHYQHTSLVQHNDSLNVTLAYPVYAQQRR
Experiment: PI3K-Alpha kinase (PIK3CA) activity, wild-type, Transcreener ADP2 FI assay
Conditions: PI3K-α (PIK3CA) wild-type, biochemical
Experimental: PI3K-Alpha kinase (PIK3CA) activity, wild-type and H1047R mutant and determining IC50 values for inhibitors Recombinant, catalytically active human full length PIK3KA Wild-type and H1047R mutant were purchased as 1:1 complex of N-terminal 6×his tagged p110<(catalytic) and untagged p85<(regulatory subunit) from EMD Millipore Sigma (cat. no. 14-602M and 14-792M, respectively). […] The contents were incubated at rt for 1h and fluorescence was measured using a plate reader (Paradigm, Molecular Devices). […]
measurement-label: IC50

Cc1cc(C(C)Nc2ccccc2C(=O)O)c2oc(N3CC(C(C)(F)F)C3)cc(=O)c2c1 (centres unmarked) : 1 to 5 µM
Cc1cc(C(C)Nc2ccccc2C(=O)O)c2oc(N3Cc4ccccc4C3)c(C)c(=O)c2c1 (single isomer, unassigned; isomer 1) : 1 to 5 µM
Cc1cc(C(C)Nc2ccccc2C(=O)O)c2oc(N3CCC(C)(C)CC3)c(C3CC3)c(=O)c2c1 (single isomer, unassigned) : 1 to 5 µM

The compound listed as Cc1cc(C(C)Nc2ccccc2C(=O)O)c2oc(N3CCC4(CCCC4)CC3)cc(=O)c2c1 (centres unmarked) shows IC50 equal to 1 to 5 µM

The compound listed as CC(Nc1ccccc1C(=O)O)c1cc(C(F)(F)F)cc2c(=O)cc(N3Cc4ccc(F)cc4C3)oc12 (single isomer, unassigned) shows IC50 equal to 0.5 to 1 µM

The compound listed as Cc1cc(C(C)Nc2ccccc2C(=O)O)c2oc(N3Cc4ccc(F)cc4C3)c(C)c(=O)c2c1 (single isomer, unassigned) shows IC50 equal to 0.5 to 1 µM

The compound listed as CC(Nc1ccccc1C(=O)O)c1cc(C(F)(F)F)cc2c(=O)cc(N3CCC(F)(F)CC3)oc12 (centres unmarked) shows IC50 equal to 1 to 5 µM

The compound listed as Cc1cc(C(C)Nc2ccc(Cl)nc2C(=O)O)c2oc(N3Cc4ccc(F)cc4C3)cc(=O)c2c1 (centres unmarked) shows IC50 equal to 1 to 5 µM

The compound listed as Cc1cc(C(C)Nc2ccccc2C(=O)O)c2oc(N3CCC4(CCCCO4)CC3)cc(=O)c2c1 (centres unmarked) shows IC50 equal to 5 to 10 µM

The compound listed as Cc1cc(C(C)Nc2ccccc2C(=O)O)c2oc(N3CCCOCC3)cc(=O)c2c1 (centres unmarked) shows IC50 equal to 1 to 5 µM

The compound listed as Cc1cc(C(C)Nc2ccc(C3CC3)nc2C(=O)O)c2oc(N3CCC(C)(C)CC3)cc(=O)c2c1 (centres unmarked) shows IC50 equal to 1 to 5 µM

###

Biological target: human full length PIK3CA H1047R mutant (p110α/p85α complex) (Homo sapiens (Human), UniProt P42336, H1047R)
Sequence (P42336 whole entry H1047R): as the sequence (P42336 whole entry) above, with H1047R counted along it
Sequence (P27986 whole entry partner): as the sequence (P27986 whole entry partner) above
Assay: PI3K-Alpha kinase (PIK3CA) activity, H1047R mutant, Transcreener ADP2 FI assay
Conditions: PI3K-α (PIK3CA) H1047R mutant, biochemical
measurement-label: IC50

Here are 10 molecules together with their reported answers.
Cc1cc(C(C)Nc2ccccc2C(=O)O)c2oc(N3CCC(C(F)(F)F)CC3)cc(=O)c2c1 (centres unmarked) [Example 74] : 500 to 1000 nM
Cc1cc(C(C)Nc2ccccc2C(=O)O)c2oc(N3CCC(C)(C)CC3)c(-c3cnoc3)c(=O)c2c1 (single isomer, unassigned) [Example 53] : < 500 nM
Cc1cc(C(C)Nc2ccc(C3CC3)nc2C(=O)O)c2oc(N3CCC(C)(C)CC3)cc(=O)c2c1 (centres unmarked) [Example 50] : 500 to 1000 nM
Cc1cc(C(C)Nc2ccccc2C(=O)O)c2oc(N3Cc4ccc(F)cc4C3)cc(=O)c2c1 (single isomer, unassigned) [Example 123] : < 500 nM
Cc1cc(C(C)Nc2ccccc2C(=O)O)c2oc(N3CCC(c4ccncc4)C3)cc(=O)c2c1 (single isomer, unassigned) [Example 194] : 500 to 1000 nM
Cc1cc(C(C)Nc2cccc3cc(C(=O)O)sc23)c2oc(N3CCC(C)(C)CC3)cc(=O)c2c1 (centres unmarked) [Example 46] : 500 to 1000 nM
Cc1c(N2CCC3(CC2)CC3)oc2c(C(C)Nc3ccccc3C(=O)O)cc(F)cc2c1=O (single isomer, unassigned) [Example 328] : < 500 nM
Cc1cc(C(C)Nc2ccccc2C(=O)O)c2oc(N3CCCC4(CNC(=O)C4)C3)cc(=O)c2c1 (centres unmarked) [Example 61] : 1000 to 5000 nM
Cc1cc(C(C)Nc2ccccc2C(=O)O)c2oc(N3CC4(C3)CC(F)(F)C4)cc(=O)c2c1 (single isomer, unassigned) [Example 222] : < 500 nM
COc1cc(C(=O)O)c(NC(C)c2cc(C)cc3c(=O)cc(N4CCC(C)(C)CC4)oc23)cc1F (centres unmarked) [Example 1] : 1000 to 5000 nM

The molecule listed as Cc1cc(C(C)Nc2ccccc2C(=O)O)c2oc(N3Cc4ccc(F)cc4C3)c(C)c(=O)c2c1 (single isomer, unassigned) [Example 272] shows IC50 equal to < 500 nM

The molecule listed as Cc1cc(C(C)Nc2ccccc2C(=O)O)c2oc(N3Cc4ccc(F)cc4C3)cc(=O)c2c1 (single isomer, unassigned) [Example 124] shows IC50 equal to 5000 to 10000 nM

The molecule listed as Cc1cc(C(C)Nc2ccccc2C(=O)O)c2oc(N3CCC(C)(C)CC3)c(C#N)c(=O)c2c1 (centres unmarked) [Example 392] shows IC50 equal to 500 to 1000 nM

The molecule listed as Cc1cc(C(C)Nc2ccccc2C(=O)O)c2oc(N3CCOC(c4ccc(S(C)(=O)=O)cc4)C3)cc(=O)c2c1 (centres unmarked) [Example 85] shows IC50 equal to 1000 to 5000 nM

###

Biological target: PI3K-B (Homo sapiens (Human))
Sequence (P42338 whole entry): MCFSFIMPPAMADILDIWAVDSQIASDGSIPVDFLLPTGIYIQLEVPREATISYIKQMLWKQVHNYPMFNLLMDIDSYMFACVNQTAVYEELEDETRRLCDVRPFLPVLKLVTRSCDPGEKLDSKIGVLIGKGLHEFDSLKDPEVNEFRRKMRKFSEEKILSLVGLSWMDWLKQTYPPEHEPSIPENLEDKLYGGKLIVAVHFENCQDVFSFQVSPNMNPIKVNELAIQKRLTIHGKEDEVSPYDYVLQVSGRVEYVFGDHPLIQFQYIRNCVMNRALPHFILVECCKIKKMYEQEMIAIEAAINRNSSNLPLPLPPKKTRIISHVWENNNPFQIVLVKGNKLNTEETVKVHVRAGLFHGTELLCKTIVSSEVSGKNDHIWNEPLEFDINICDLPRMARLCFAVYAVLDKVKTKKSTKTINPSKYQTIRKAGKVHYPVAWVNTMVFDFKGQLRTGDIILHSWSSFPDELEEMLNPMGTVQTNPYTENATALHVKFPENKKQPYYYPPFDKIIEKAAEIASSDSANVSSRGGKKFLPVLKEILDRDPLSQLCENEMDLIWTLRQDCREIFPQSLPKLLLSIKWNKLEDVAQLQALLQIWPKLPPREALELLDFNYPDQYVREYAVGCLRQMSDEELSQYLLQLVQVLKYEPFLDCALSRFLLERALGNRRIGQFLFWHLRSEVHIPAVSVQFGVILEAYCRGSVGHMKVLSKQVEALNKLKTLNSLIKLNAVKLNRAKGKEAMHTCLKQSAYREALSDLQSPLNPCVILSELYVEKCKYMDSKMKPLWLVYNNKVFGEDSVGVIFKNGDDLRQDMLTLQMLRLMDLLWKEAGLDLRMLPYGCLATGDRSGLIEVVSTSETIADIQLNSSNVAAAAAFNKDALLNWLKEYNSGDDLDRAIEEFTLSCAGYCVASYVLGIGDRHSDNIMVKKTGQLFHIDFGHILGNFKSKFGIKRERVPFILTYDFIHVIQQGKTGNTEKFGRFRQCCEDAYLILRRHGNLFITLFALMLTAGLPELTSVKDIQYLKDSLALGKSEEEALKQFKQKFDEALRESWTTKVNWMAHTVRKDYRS
Sequence (P27986 whole entry partner): as the sequence (P27986 whole entry partner) above
measurement-label: pIC50
API: returns pIC50 as number; meaning -log10 of concentration in mol/L.

Recorded pIC50 for Cc1cc(C(C)Nc2ccccc2C(=O)O)c2oc(N3Cc4ccccc4C3)cc(=O)c2c1 (single isomer, unassigned) [Example 363] on PI3K-B (Homo sapiens (Human)) was 6.96

###

Target: DNA-PK (Homo sapiens (Human))
measurement-label: pIC50
API: returns pIC50 as number; meaning -log10 of concentration in mol/L.

Recorded pIC50 for Cc1cc(C(C)Nc2ccccc2C(=O)O)c2oc(N3Cc4ccccc4C3)cc(=O)c2c1 (single isomer, unassigned) on DNA-PK (Homo sapiens (Human)) was 6.01

###

Molecular target: human full length PIK3CA H1047R mutant (p110α/p85α complex) (Homo sapiens (Human), UniProt P42336, H1047R)
Assay: PI3K-Alpha kinase (PIK3CA) activity, H1047R mutant, Transcreener ADP2 FI assay
Settings: PI3K-α (PIK3CA) H1047R mutant, biochemical
Method: PI3K-Alpha kinase (PIK3CA) activity, wild-type and H1047R mutant and determining IC50 values for inhibitors Recombinant, catalytically active human full length PIK3KA Wild-type and H1047R mutant were purchased as 1:1 complex of N-terminal 6×his tagged p110<(catalytic) and untagged p85<(regulatory subunit) from EMD Millipore Sigma (cat. no. 14-602M and 14-792M, respectively). […] The contents were incubated at rt for 1h and fluorescence was measured using a plate reader (Paradigm, Molecular Devices). […]
measurement-label: IC50

Here are 3 molecules together with their reported answers.
Cc1cc(C(C)Nc2ccccc2C(=O)O)c2oc(NC34CC5CC(CC(CO)(C5)C3)C4)cc(=O)c2c1 (centres unmarked) [Example 169] : 1000 to 5000 nM
Cc1c(N2Cc3ccccc3C2)oc2c(C(C)Nc3ccccc3C(=O)O)cc(C(F)(F)F)cc2c1=O (single isomer, unassigned) [Example 348] : < 500 nM
Cc1cc(C(C)Nc2ccccc2C(=O)O)c2oc(N3CCC4(CCCC4)CC3)cc(=O)c2c1 (centres unmarked) [Example 96] : 500 to 1000 nM

The molecule listed as CCC1(c2ccccc2)CN(c2cc(=O)c3cc(C)cc(C(C)Nc4ccccc4C(=O)O)c3o2)C1 (single isomer, unassigned) [Example 212] shows IC50 equal to < 500 nM

The molecule listed as Cc1cc(C(C)Nc2ccccc2C(=O)O)c2oc(N3CCn4cnnc4C3)cc(=O)c2c1 (centres unmarked) [Example 163] shows IC50 equal to 1000 to 5000 nM

The molecule listed as CC(Nc1ccccc1C(=O)O)c1cc(C(F)(F)F)cc2c(=O)cc(N3Cc4ccc(C#N)cc4C3)oc12 (single isomer, unassigned; isomer 2) [Example 338] shows IC50 equal to < 500 nM

The molecule listed as Cc1cc(C(C)Nc2ccccc2C(=O)O)c2oc(N3CCC(C)(C)CC3)c(-c3cnoc3)c(=O)c2c1 (single isomer, unassigned) [Example 54] shows IC50 equal to > 10000 nM

The molecule listed as CCNc1cc(=O)c2cc(C)cc(C(C)Nc3ccccc3C(=O)O)c2o1 (centres unmarked) [Example 126] shows IC50 equal to 500 to 1000 nM

The molecule listed as COc1ccc(NC(C)c2cc(C)cc3c(=O)cc(N4Cc5ccccc5C4)oc23)c(C(=O)O)n1 (centres unmarked) [Example 237] shows IC50 equal to 5000 to 10000 nM

The molecule listed as Cc1cc(C(C)Nc2ccccc2C(=O)O)c2oc(N3Cc4ccccc4C3)cc(=O)c2c1 (single isomer, unassigned) [Example 362] shows IC50 equal to < 500 nM
